Assay summary: soluble fraction after stress (log2 fold change); higher = more stays soluble; pooled small domains, quantitative proteomics
Run conditions: stress: pH 4
Measured soluble fraction (log2) of individual entries
Measured endpoint: soluble fraction (log2)

>>> meas_value("HMVWTAGEVVERIRERVGHPATIRELMQVLTIPPEDRHRFRRRIMQLVEAGELIRIRGNRYGLAD")
0.124
>>> meas_value("HMADRDKYIIMGQQLLRAAFEHFGKKATDKALENAANKLRISDVPELYARLGSAELQPRDVINVIFPD")
-0.0521
>>> meas_value("HMNYSIVNVGFNNKSLFLRSAPGYSASRLLLPFATERAFVRETLSNGWSRVIVRGTEGYLPTEYVAD")
-0.553
>>> meas_value("HMEDETAKVLRLLAENNGYLPYNDKSDPTDIYAFFGMSKKAFKMTTGNLYKQKKIQFTQTGIQLIE")
-0.16
>>> meas_value("HMYDFGVILQKLRKEKGFTQEQLARLIHKESSIISRYEKGLQNPTFETVKEFAAIFNVSMDYLAG")
-0.255
>>> meas_value("HMHVLNEEYYNRIKAIQFTMNHDDGNSLNDIEKSDIILLGVSRTSKTPTSIYLANRGLRTSNIPLINEK")
-0.316
>>> meas_value("HMGALARLLASVEQELGVTRDRMTRTQKQEAVTLLNEWGAFTLRKSVEDVAEALGVSRFTVYNYLERAEA")
-0.866
>>> meas_value("HMSTFTPYLVKVTTSVLNIRKGAGTNYGTNGSIRDMGTYTIVAEADGQGASKWGKLKSGAGWISLDYTKK")
0.184
>>> meas_value("HMEPDDLTVIKGIGPVAAKDLNEQGIITFAQLAKLSDKDVAKIDEHMPFSADQIKDWREQAKELAK")
0.0725
